Recorded metric: glass transition temperature (°C)

I'd like to know its glass transition temperature. The molecule in question is *c1ccc2c(c1)C(=O)N(c1cccc(C(=O)Nc3ccc(Oc4ccccc4Oc4ccc(NC(=O)c5cccc(N6C(=O)c7ccc(C(*)(C(F)(F)F)C(F)(F)F)cc7C6=O)c5)cc4)cc3)c1)C2=O (repeat unit)
265.00

I'd like to know its glass transition temperature. The molecule in question is *Oc1ccc(-c2ccc(OC(=O)c3ccc(Oc4ccc(C5(c6ccc(Oc7ccc(C(*)=O)cc7)cc6)CCC(C(C)(C)C)CC5)cc4)cc3)cc2C)c(C)c1 (repeat unit)
163.00

I'd like to know its glass transition temperature. The molecule in question is *=Nc1ccc(/N=C(\c2ccccc2)c2ccc(C(=*)c3ccccc3)cc2)cc1 (repeat unit)
179.00

I'd like to know its glass transition temperature. The molecule in question is *C(=O)c1ccc2c(c1)C(=O)N(c1ccc(C(=O)c3ccc(N4C(=O)c5ccc(*)cc5C4=O)cc3)cc1)C2=O (repeat unit)
293.00

I'd like to know its glass transition temperature. The molecule in question is *c1ccc(OCCN(CCOc2ccc(-c3nc4ccc(Oc5ccc6nc(*)c(-c7ccccc7)nc6c5)cc4nc3-c3ccccc3)cc2)c2ccc(/N=N/c3ccc([N+](=O)[O-])cc3C)cc2)cc1 (repeat unit)
188.00

1: *OC1C(C)(C)C(OC(=O)C2CCC(C(*)=O)CC2)C1(C)C (repeat unit)
2: *C(=O)Nc1ccc(Sc2ccc(NC(=O)c3ccc4c(c3)C(=O)N(c3ccc(Oc5ccc(N6C(=O)c7ccc(*)cc7C6=O)cc5)cc3)C4=O)cc2)cc1 (repeat unit)
3: *CCCOC(=O)NCCCCCCNC(=O)O* (repeat unit)
4: *Oc1ccc(CC(NC(=O)Cc2ccc(OC(=O)COCCOCC(*)=O)cc2)C(=O)OCCCCCC)cc1 (repeat unit)
Order the entries by their reported glass transition temperature, beginning at the minimum. Put the labels in the requested order and list them out.
4, 3, 1, 2
